- Species: Oryctolagus cuniculus
- Assay Remarks: Activation of actin-stimulated rabbit psoas skeletal muscle myosin S1 fragment ATPase activity at 100 uM after 10 mins by spectrophotometric analysis relative to control
Below, each entry is listed with its recorded Activity.
Observable: Activity (%)

>>> val("Cc1ccc2c(c1)C(=O)[C@]1(O)CCN(c3ccccc3)C1=N2")
-54.1
>>> val("c1ccc(CCCc2nnc(Cc3ccccc3)o2)cc1")
1.8
>>> val("c1ccc(CCCc2nnc(CCC3CCCCC3)o2)cc1")
-2.7
>>> val("c1ccc(CCCc2nc(-c3ccccc3)no2)cc1")
-5.3
>>> val("COC(=O)N1CCN(Cc2cccc(NC(=O)Nc3ccc(C)nc3)c2F)CC1 [OMECAMTIV MECARBIL]")
2.2
>>> val("c1ccc(CCCc2nc(Cc3ccccc3)no2)cc1")
3.3
>>> val("c1ccc(CCCNc2nnc(-c3ccccc3)o2)cc1")
1.9
>>> val("c1ccc(CCCc2nnc(CCc3ccccc3)o2)cc1")
-3.1
>>> val("c1ccc(CCCc2nnc(-c3ccccc3)o2)cc1")
-2.5
